Molecular target: delta opioid receptor (UniProt P41143)
Test: PDSP receptor binding; binding eliminated by the text
pKi: −log10 of the molar value. Where no end group is shown, it is not given here. [ ]: non-standard residue; d: D form. Glc = glycosylated with D-glucose; Lact = not defined here
property measured: pKi

Fill in: pKi of YK[dNal]FES(Glc)-NH2 (not fully specified) [Analog A4 (D-Nal at position 3, C-terminus Ser(Glc)CONH2)] is ___
< 5.00

Also, YK[dNal]FES(Lact)-NH2 (not fully specified; reading uncertain) [Analog A5 (D-Nal at position 3, C-terminus Ser(Lact)CONH2)] please.
< 5.00
